Reported pEC50 values for the following compounds.
- Tested on: CEM cells HIV-1 protection, formazan growth assay
- experiment: NCI AIDS Antiviral Assay
pEC50: −log10 of the molar value.

compound=Cc1cc(NS(=O)(=O)c2ccc(Nc3c4ccccc4nc4c(C(=O)Nc5ccc(S(=O)(=O)N=C(N)N)cc5)ccc(Cl)c34)cc2)no1 measurement_target="CEM cells HIV-1 protection, formazan growth assay" result="< 4.29"

Report pEC50 for `C=CCOCn1ccc(NC(=O)c2ccccc2)nc1=O` tested on CEM cells HIV-1 protection, formazan growth assay.
< 3.70

Param readout= pEC50; system= CEM cells HIV-1 protection, formazan growth assay; entry= CCOC(=O)C(=O)C(CCC(=O)c1ccc2ccccc2c1O)C(=O)OCC (centres undefined) ; returns value.
< 3.33

Lab request: please report pEC50 under test system CEM cells HIV-1 protection, formazan growth assay for COC1(CC[C@@H](C)COC2OC(CO)C(O)C(O)C2O)O[C@H]2C[C@H]3[C@@H]4CC=C5C[C@@H](OC6OC(CO)C(OC7OC(C)C(O)C(O)C7O)C(O)C6OC6OC(C)C(O)C(O)C6O)CC[C@]5(C)[C@H]4CC[C@]3(C)[C@H]2[C@@H]1C (some centres undefined)
< 3.70
